Entries and their IC50
Molecular target: human TRPV4 (hTRPV4/CHO cells) (Homo sapiens)
Construct: expressed in transfected cells; host or cells: CHO-K1
Assay: Test Example 1: TRPV4 inhibitory activity (IC50 value), 4α-PDD stimulation, Fluo4 calcium fluorescence (FLIPR TETRA)
Assay type: cell-based
Conditions: Test Example 1, 4α-PDD stimulation, read-out: Test 1 IC50

| compound | obs value |
| --- | --- |
| O=C(Nc1nc(-c2sc(CO)nc2CO)cs1)C1CN(c2ccc(C(F)(F)F)cn2)C1 [Compound I-303] | 100 to 1000 nM |
| Cc1nc(C)c(-c2csc(NC(=O)[C@@H]3C[C@@H](c4ccccc4)CN3C(=O)C(F)(F)F)n2)s1 [Compound I-218] | < 100 nM |
| Cc1nc(C)c(-c2csc(NC3CCCCC3)n2)s1 [II-37] | < 100 nM |

Attention now shifts to the item below.
Lab note: measured IC50 of Cc1nc(C)c(-c2csc(NC(=O)CN3CCC[C@H](c4ccccc4)C3)n2)s1 [Compound I-184] was < 100 nM

###

Biological target: human TRPV4 (hTRPV4/CHO cells) (Homo sapiens, UniProt Q9HBA0)
Construct: expressed in transfected cells; host or cells: CHO-K1
Sequence (Q9HBA0 whole entry): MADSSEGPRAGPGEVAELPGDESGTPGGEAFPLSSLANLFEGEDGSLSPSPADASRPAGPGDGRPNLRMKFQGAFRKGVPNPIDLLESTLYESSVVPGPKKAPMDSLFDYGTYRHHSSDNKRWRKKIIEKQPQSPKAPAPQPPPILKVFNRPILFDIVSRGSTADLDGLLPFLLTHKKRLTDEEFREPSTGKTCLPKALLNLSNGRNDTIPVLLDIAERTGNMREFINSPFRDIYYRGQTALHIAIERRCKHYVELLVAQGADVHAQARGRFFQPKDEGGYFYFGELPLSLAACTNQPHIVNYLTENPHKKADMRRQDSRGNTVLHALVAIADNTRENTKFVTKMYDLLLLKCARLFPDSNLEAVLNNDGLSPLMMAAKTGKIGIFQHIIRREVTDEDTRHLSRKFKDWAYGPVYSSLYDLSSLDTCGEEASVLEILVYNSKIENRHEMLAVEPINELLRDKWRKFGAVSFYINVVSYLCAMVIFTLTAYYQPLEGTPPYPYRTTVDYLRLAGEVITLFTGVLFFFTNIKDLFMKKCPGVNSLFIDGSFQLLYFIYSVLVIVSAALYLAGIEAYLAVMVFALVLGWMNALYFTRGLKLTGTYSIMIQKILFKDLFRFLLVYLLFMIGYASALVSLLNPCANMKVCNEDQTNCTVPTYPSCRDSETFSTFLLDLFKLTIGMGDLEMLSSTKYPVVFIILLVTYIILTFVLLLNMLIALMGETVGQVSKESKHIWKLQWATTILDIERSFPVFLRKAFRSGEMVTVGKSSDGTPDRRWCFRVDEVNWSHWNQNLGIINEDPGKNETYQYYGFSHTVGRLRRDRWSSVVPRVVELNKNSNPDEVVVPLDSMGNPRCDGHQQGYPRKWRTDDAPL
Assay: Test Example 1: TRPV4 inhibitory activity (IC50 value), 4α-PDD stimulation, Fluo4 calcium fluorescence (FLIPR TETRA)
Format: cell-based
Settings: Test Example 1, 4α-PDD stimulation, read-out: Test 1 IC50
Below, each entry is listed alongside its reported IC50.

Sample answers from the record:
| compound | obs value |
| --- | --- |
| Cc1nc(C)c(-c2csc(NC(=O)N3CCC(C(F)(F)F)CC3)n2)s1 | 1000 to 8000 nM |
| COC(=O)NCc1nc(CO)sc1-c1csc(NC(=O)Cc2ccc(S(=O)(=O)C(F)(F)F)cc2)n1 | < 100 nM |
| Cc1nc(C)c(-c2csc(NC(=O)[C@H]3C[C@@H](c4ccccc4)CN3C(=O)OC(C)(C)C)n2)s1 | 100 to 1000 nM |

Lab note: Cc1nc(CO)sc1-c1csc(NC(=O)CC2CC3(CCC3)C2)n1 gave IC50 of < 100 nM

The value of IC50 measured for the compound Cc1nc(C)c(-c2csc(NC(=O)Cc3ccc(S(C)(=O)=O)cc3)n2)s1 turned out to be 1000 to 8000 nM

Form: compound = CC(O)c1nc(CO)sc1-c1csc(NC(=O)Cc2ccc(S(=O)(=O)C(F)(F)F)cc2)n1 (racemic) ; IC50 = < 100 nM

Notebook: O=C(O)CCc1nc(CO)sc1-c1csc(NC(=O)C2CN(c3ccc(C(F)(F)F)cc3)C2)n1 , IC50 read as 1000 to 8000 nM

Reported IC50 ( Cc1nc(CO)sc1-c1csc(NC(=O)[C@H]2C[C@@H](NCc3ccc(C(F)(F)F)cc3)C2)n1 ) = 100 to 1000 nM

Sample Cc1nc(C)c(-c2csc(NC(=O)Cc3cccc(NC(=O)C(C)C)c3)n2)s1 ; IC50 observed: 100 to 1000 nM

Reported IC50 for Cc1nc(C)c(-c2nsc(NC(=O)Cc3ccc(C(O)C(F)(F)F)cc3)n2)s1 (stereo not shown) was 1000 to 8000 nM

###

Ki reference
Biological target: human TRPV4 (hTRPV4/CHO cells) (Homo sapiens)
Construct: expressed in transfected cells; host or cells: CHO-K1
Assay: Test Example 4: TRPV4 inhibitory activity (Ki value), 4α-PDD stimulation, Fluo-3 calcium fluorescence (FDSS 3000)
Assay type: cell-based
Conditions: Test Example 4, 4α-PDD stimulation, read-out: Test 4 Ki

Example cases with answers are listed next.
| compound string | Ki |
| --- | --- |
| Cc1nc(C)c(-c2csc(NC(=O)CCc3ccccc3)n2)s1 | 100 to 1000 nM |
| Cc1nc(C)c(-c2csc(NC(=O)Cc3ccc(OC(F)(F)F)cc3)n2)s1 | < 100 nM |
| Cc1nc(C(F)F)sc1-c1csc(NC(=O)Cc2ccc(S(=O)(=O)C(F)(F)F)cc2)n1 | 100 to 1000 nM |

Please turn your attention to the following entry.
So for CCCCCCCCCCCC(=O)Nc1nc(-c2sc(C)nc2C)cs1 , the logged Ki turned out to be 100 to 1000 nM
